Study Target: T1, DR5-IgG (human, UniProt O14763 56-184)
T1 construct: also called Apo-2-IgG; not shown: IgG part; prepared as in WO98/51793, not described here
T1 sequence (O14763 56-184): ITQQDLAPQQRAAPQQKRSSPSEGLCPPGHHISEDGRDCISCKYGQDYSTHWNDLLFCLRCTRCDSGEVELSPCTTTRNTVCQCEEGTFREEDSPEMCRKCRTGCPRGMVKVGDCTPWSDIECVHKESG
Protocol Text: BIAcore; against Flag.Apo2L.WT
Assign DR5 KD (mut/wt) to each entry below.
Numbers only, in ratio.

- Binder: "Flag.Apo2L.DR4-9 (ligand, not shown: N-terminal flag tag from pFLAG-MAC) VRERGPQRVAAHITGTRGRSNTLSSPNSKNEKALGRKINSWESSRSGHSFLSNLHLRNGELVIHEKGFYYIYSQTAFRFSEEIKERTRNDKQMVQYIYKWTDYPDPILLMKSARNSCWSKDAEYGLYSIYQGGIFELKENDRIFVSVTNEHLIDMDHEASFFGAFLVG"
  Recorded Value: 1200

Now, please, on to the next binder.
I would be grateful if you could share the reported DR5 KD (mut/wt) for Flag.Apo2L.DR5-23 (ligand, not shown: N-terminal flag tag from pFLAG-MAC) VRERGPQRVAAHITGTRGRSNTLSSPNSKNEKALGRKINSWESSRSGHSFLSNLHLRNGELVIHEKGFYYIYSQTAFKFREEIKENTKNDKQMVQYIYKYTSYPDPILLMKSARNSCWSKDAEYGLYSIYQGGIFELKENDRIFVSVTNESLLDMEHEASFFGAFLVG .
2.4
